Origin of measurements: patent EP0552417B1

Tested on: ETB
Assay: ETB radio receptor assay *2, 125I-endothelin-1, guinea pig kidney crude membrane fraction
Type: binding, Guinea pigs
Details: relative activity, 37 °C, 90 minutes
Non-standard residues stand in square brackets, D forms with d. Residues, ends and D or L forms follow the SMILES beside them. *: point of attachment. NMeF = CN[C@@H](Cc1ccccc1)C(=O)O; Orn = NCCC[C@H](N)C(=O)O; PhAc = O=C(Cc1ccccc1)*; For = O=C*
observed-property: Binding Activity on ET Receptor (R. act.) ETB*2

[
  {
    "compound": "CC(C)C[C@@H]1NC(=O)[C@@H](CC(C)C)NC(=O)[C@H](CC(=O)O)NC(=O)[C@H](Cc2ccccc2)N(C)C(=O)[C@@H](CC(=O)O)NC(=O)[C@@H](Cc2c[nH]c3ccccc23)NC1=O [Example 48] (cyclo(D[dL]L[dW][dD][NMeF]))",
    "experimental-value": 13
  },
  {
    "compound": "CC(C)C[C@@H]1NC(=O)[C@@H](Cc2ccccc2)NC(=O)[C@H](CC(=O)O)NC(=O)[C@H](Cc2c[nH]c3ccccc23)NC(=O)[C@@H](CC(=O)O)NC(=O)[C@@H](Cc2c[nH]c3ccccc23)NC1=O [Example 60, Cyclo[-D-Asp-Trp-Asp-D-Phe-Leu-D-Trp-]] (cyclo(D[dF]L[dW][dD]W))",
    "experimental-value": 44
  },
  {
    "compound": "CC(C)C[C@@H]1NC(=O)[C@@H](CC(C)C)NC(=O)[C@H](CC(=O)O)NC(=O)[C@H](CCCNC(=O)Cc2ccccc2)NC(=O)[C@@H](CC(=O)O)NC(=O)[C@@H](Cc2c[nH]c3ccccc23)NC1=O [Example 80] (cyclo(D[dL]L[dW][dD][Orn](PhAc)))",
    "experimental-value": 380
  },
  {
    "compound": "CC(C)C[C@@H]1NC(=O)[C@@H](CC(C)C)NC(=O)[C@H](C)NC(=O)[C@H](CCC(=O)O)NC(=O)[C@@H](CC(=O)O)NC(=O)[C@@H](Cc2c[nH]c3ccccc23)NC1=O [Example 7, cyclo[-D-Asp-Glu-Ala-D-Leu-Leu-D-Trp-]] (cyclo(A[dL]L[dW][dD]E))",
    "experimental-value": 7.1
  },
  {
    "compound": "CC(C)C[C@@H]1NC(=O)[C@@H](CC(C)C)NC(=O)[C@H](CC(=O)O)NC(=O)[C@H](Cc2ccccc2)NC(=O)[C@@H](CC(=O)O)NC(=O)[C@@H](Cc2c[nH]c3ccccc23)NC1=O [Example 19, Cyclo[-D-Asp-Phe-Asp-D-Leu-Leu-D-Trp-]] (cyclo(D[dL]L[dW][dD]F))",
    "experimental-value": 7.1
  },
  {
    "compound": "CC(C)C[C@@H]1NC(=O)[C@@H](CC(C)C)NC(=O)[C@@H](C)NC(=O)[C@H](CC(=O)O)NC(=O)[C@@H](CC(=O)O)NC(=O)[C@@H](Cc2c[nH]c3ccccc23)NC1=O [Example 29, Cyclo[-D-Asp-Asp-D-Ala-D-Leu-Leu-D-Trp-]] (cyclo(D[dA][dL]L[dW][dD]))",
    "experimental-value": 2.4
  }
]

I = CC(C)C[C@@H]1NC(=O)[C@@H](CC(C)C)NC(=O)[C@H](CC(=O)O)NC(=O)[C@H](Cc2c[nH]c3ccccc23)NC(=O)[C@@H](CC(=O)O)NC(=O)[C@@H](Cc2cn(C)c3ccccc23)NC1=O
II = CC(C)C[C@@H]1NC(=O)[C@@H](CC(C)C)NC(=O)[C@H](CC(=O)O)NC(=O)[C@H](Cc2cn(C=O)c3ccccc23)NC(=O)[C@@H](CC(=O)O)NC(=O)[C@@H](Cc2c[nH]c3ccccc23)NC1=O [Example 22] (cyclo(D[dL]L[dW][dD]W(For)))
Task item: Of I and II , which one carries the higher reported Binding Activity on ET Receptor (R. act.) ETB*2? Output the label that corresponds to your choice.
Reply: I

----------
Biological target: NK2 receptor (Bos taurus)
Sequence (P05363 whole entry): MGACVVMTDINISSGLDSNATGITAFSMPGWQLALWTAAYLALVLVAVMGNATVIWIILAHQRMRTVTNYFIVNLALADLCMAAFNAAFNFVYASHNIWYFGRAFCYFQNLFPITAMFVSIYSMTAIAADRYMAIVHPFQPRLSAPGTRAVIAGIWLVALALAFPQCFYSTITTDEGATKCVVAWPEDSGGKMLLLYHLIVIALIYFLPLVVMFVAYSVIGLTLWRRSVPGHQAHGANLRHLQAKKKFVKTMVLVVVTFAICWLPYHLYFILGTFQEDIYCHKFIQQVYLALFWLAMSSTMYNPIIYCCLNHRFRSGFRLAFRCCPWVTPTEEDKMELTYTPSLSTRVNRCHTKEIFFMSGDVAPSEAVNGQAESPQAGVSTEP
pIC50: −log10 of the molar value. Non-standard residues stand in square brackets, D forms with d. Residues, ends and D or L forms follow the SMILES beside them. Groups on a side chain read outwards from the residue. *: point of attachment. 1Nal = N[C@@H](Cc1cccc2ccccc12)C(=O)O; NHPhenethyl = c1ccc(CCN*)cc1; NHBn = c1ccc(CN*)cc1; Bn = c1ccc(C*)cc1
observed-property: pIC50

Some solved cases for reference:
[
  {
    "molecule": "CC(C)C[C@@H]1NC(=O)[C@@H](CC(C)C)NC(=O)[C@H](CC(=O)O)NC(=O)[C@H](CC(=O)N[C@@H](Cc2c[nH]c3ccccc23)C(=O)NCCc2ccccc2)NC(=O)[C@@H](CC(=O)O)NC(=O)[C@@H](Cc2c[nH]c3ccccc23)NC1=O [Example 94] (cyclo(D([Trp-NHPhenethyl])D[dL]L[dW][dD]))",
    "measurement-target": "NK2 receptor (Bos taurus)",
    "pIC50": 5.24
  },
  {
    "molecule": "CC(C)C[C@@H]1NC(=O)[C@H](CC(=O)O)NC(=O)[C@@H](CC(=O)O)NC(=O)[C@@H](Cc2c[nH]c3ccccc23)NC(=O)[C@H](CC(C)C)NC(=O)[C@@H](CC(C)C)NC1=O [Example 32, Cyclo[-D-Asp-Asp-Leu-D-Leu-Leu-D-Trp-]] (cyclo(DL[dL]L[dW][dD]))",
    "measurement-target": "NK2 receptor (Bos taurus)",
    "pIC50": 5.59
  },
  {
    "molecule": "CC(C)C[C@@H]1NC(=O)[C@@H](CC(C)C)NC(=O)[C@H](CC(=O)O)NC(=O)[C@H](CC(=O)N[C@@H](Cc2c[nH]c3ccccc23)C(=O)NCc2ccccc2)NC(=O)[C@@H](CC(=O)O)NC(=O)[C@@H](Cc2c[nH]c3ccccc23)NC1=O [Example 92] (cyclo(D([Trp-NHBn])D[dL]L[dW][dD]))",
    "measurement-target": "NK2 receptor (Bos taurus)",
    "pIC50": 5.40
  },
  {
    "molecule": "CC(C)C[C@@H]1NC(=O)[C@@H](CC(C)C)NC(=O)[C@H](CO)NC(=O)[C@H](Cc2c[nH]c3ccccc23)NC(=O)[C@@H](CC(=O)O)NC(=O)[C@@H](Cc2c[nH]c3ccccc23)NC1=O [Example 37, Cyclo[-D-Asp-Trp-Ser-D-Leu-Leu-D-Trp-]] (cyclo(L[dW][dD]WS[dL]))",
    "measurement-target": "NK2 receptor (Bos taurus)",
    "pIC50": 6.55
  }
]

P = CC(C)C[C@@H]1NC(=O)[C@@H](CC(C)C)NC(=O)[C@H](COCc2ccccc2)NC(=O)[C@H](Cc2c[nH]c3ccccc23)NC(=O)[C@@H](CC(=O)O)NC(=O)[C@@H](Cc2c[nH]c3ccccc23)NC1=O [Example 38] (cyclo(L[dW][dD]WS(Bn)[dL]))
Q = CC(C)C[C@@H]1NC(=O)[C@@H](CC(C)C)NC(=O)[C@H](CC(=O)O)NC(=O)[C@H](Cc2cccc3ccccc23)NC(=O)[C@@H](CC(=O)O)NC(=O)[C@@H](Cc2c[nH]c3ccccc23)NC1=O [Example 23] (cyclo([1Nal]D[dL]L[dW][dD]))
Task item: Hello, I am sorting some records. Could you say if P or Q has the smaller pIC50 value? Could you answer with the label of the item you picked?
Reply: Q
(Q: 5.68, P: 7.15)

----------
Molecular target: endothelin receptor A (ETA) (Sus scrofa, UniProt Q29010)
Construct: A membrane fraction prepared from the porcine heart; from tissue; host or cells: porcine heart membrane fraction
Sequence (Q29010 21-427): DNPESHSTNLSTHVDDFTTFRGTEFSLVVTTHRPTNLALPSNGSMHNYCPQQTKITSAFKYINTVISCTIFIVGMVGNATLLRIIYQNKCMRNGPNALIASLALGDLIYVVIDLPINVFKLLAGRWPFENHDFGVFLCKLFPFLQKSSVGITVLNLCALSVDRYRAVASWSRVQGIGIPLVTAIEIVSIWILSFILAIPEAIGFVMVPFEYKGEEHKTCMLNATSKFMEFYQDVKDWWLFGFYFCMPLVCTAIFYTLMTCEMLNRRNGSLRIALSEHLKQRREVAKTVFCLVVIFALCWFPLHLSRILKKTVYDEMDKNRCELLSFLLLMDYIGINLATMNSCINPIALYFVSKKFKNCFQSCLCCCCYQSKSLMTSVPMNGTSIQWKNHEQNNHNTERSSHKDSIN
Assay: Assay of affinity for receptor (1): binding activity on ETA receptor, 125I-labeled endothelin-1, porcine heart membrane fraction
Design: key: relative specific activity; reference cyclic pentapeptide ETA binding = 1.0
Conditions: specific activity, taking the binding activity of control cyclo[-D-Glu-Ala-D-aIle-Leu-D-Trp-] on receptor A as 1.0, 25°C, 1 hour
Description: Assay of Affinity for Receptor (1) ... Binding Activity on ETA Receptor A membrane fraction prepared from the porcine heart was diluted to 0.15 mg/ml by using a buffer solution for assay, and 100 µl of the resulting suspension of the membrane fraction was poured into each assay tube to use for assay. To this suspension of the membrane fraction was added 2 µl of 5 nM ^125I-labeled endothelin-1 solution. […]
Non-standard residues stand in square brackets, D forms with d. Residues, ends and D or L forms follow the SMILES beside them. *: point of attachment. Bn = c1ccc(C*)cc1
observed-property: Binding Activity on ET Receptor (R. act.) ETA
Field format: numeric only.

[
  {
    "compound": "CC(C)C[C@@H]1NC(=O)[C@@H](CC(C)C)NC(=O)[C@H](CC(=O)O)NC(=O)[C@H](COCc2ccccc2)NC(=O)[C@@H](CC(=O)O)NC(=O)[C@@H](Cc2c[nH]c3ccccc23)NC1=O [Example 20] (cyclo(D[dL]L[dW][dD]S(Bn)))",
    "experimental-value": 14
  }
]

Now look at this one.
CC(C)C[C@@H]1NC(=O)[C@@H](CC(C)C)NC(=O)[C@H](C)NC(=O)[C@@H](CCC(=O)O)NC(=O)[C@@H](CC(=O)O)NC(=O)[C@@H](Cc2c[nH]c3ccccc23)NC1=O [Example 28, Cyclo[-D-Asp-D-Glu-Ala-D-Leu-Leu-D-Trp-]] (cyclo(A[dL]L[dW][dD][dE])) yielded Binding Activity on ET Receptor (R. act.) ETA of 5.7
